Where these numbers come from: paper PMC6753678

- Tested on: HepG2 cells
- Procedure Summary: HepG2 cytotoxicity assay
- Particulars: HepG2 values of the three screens unified
// classify: if (Unified cytotox < 0.01 µM) 1 (yes) else 0 (no)

Consider the following illustrative entries.
COc1cccc(Cn2ccc3c4c(N)nc(N)nc4ccc32)c1 :: 0 (no)
COc1ccc(CCc2ccc(-c3c(C)[nH]c(C)c(Cl)c3=O)cc2)cc1OC :: 0 (no)
COc1ccc2ncc(C#N)c(CCN3C4CCC3CC(NCc3ccc5c(n3)NC(=O)CS5)C4)c2c1.Cl (centres unmarked) :: 0 (no)
CCC(C(C)C)n1ccc2c3c(N)nc(N)nc3ccc21 (centres unmarked) :: 1 (yes)

Moving on to another compound below.
INPUT: Report whether reported Unified cytotox is lower than 0.01 µM (strictly) for Cc1ccccc1Cn1ccc2c3c(N)nc(N)nc3ccc21
OUTPUT: 1 (yes)

---

- Test system: P. berghei ookinete development
- Particulars: read-out: Pb Ookinete development assay IC50; dose response confirmation
Readout Label: IC50 (nM)
Use nM as the unit, but write only the number.

CCn1c(C)cc(C=C2SC(=Nc3ccccc3)NC2=O)c1C [TCMDC-124456] :: 1000
CCCCN(C)CC#Cc1ccc2[nH]c(C)c(Cl)c(=O)c2c1 [TCMDC-136185] :: 207
COc1ccc2ncc(C#N)c(CCN3CCC(NCc4ccc5c(c4)NC(=O)CO5)CC3)c2c1.Cl [TCMDC-135645] :: 457
CCc1cc2c3c(N)nc(N)nc3ccc2n1C(C)CC (stereo not drawn) [TCMDC-137308] :: 694
Cc1cc(F)ccc1-c1nc(NCCCNCCc2ccccc2)nc2c1ccc(=O)n2-c1c(F)cccc1F.O=C(O)C(F)(F)F [TCMDC-141804] :: 725

INPUT: Give the measured IC50 of Br.CC1(C)NC(N)=NC(=N)N1OCCCOc1cc(Cl)ccc1Cl [TCMDC-131679] .
OUTPUT: 3390

INPUT: Give the measured IC50 of O=C(NCC1CCCCC1)c1cc(=O)c2ccccc2o1 [TCMDC-123621] .
OUTPUT: 1040

---

- Test system: 3D7-strain P. falciparum asexual parasites
- Procedure Summary: P. falciparum asexual growth inhibition assay (Pf GIA)
- Type: cell-based, Plasmodium falciparum
- Particulars: dose response confirmation; read-out: Pf asexual growth inhibition assays IC50
Readout Label: pIC50
Please express pIC50 as -log10 of the molar concentration.

Some solved entries appear below for comparison.
Cc1[nH]c(C)c(-c2ccc(C(F)(F)F)cc2)c(=O)c1Br :: 6.43
COc1cc(F)c2ncc(Cl)c(CCN3CCC(NCc4ccc5c(n4)NC(=O)CO5)CC3)c2c1.Cl :: 5.59
COc1ccc2nccc([C@@H](O)CN3CCC(NCc4cc5ccccc5nc4O)CC3)c2c1.Cl :: 6.37
CCC(C)(C)n1c(C)cc2c3c(N)nc(N)nc3ccc21 :: 9.05
CN(Cc1cccc(F)c1)C1CCN(c2cc(NC(=O)c3ccc(F)cc3)ccn2)CC1.O=C(O)C(F)(F)F :: 7.51
Cc1[nH]c(C)c(-c2ccc(C(=O)c3ccc(Cl)cc3)cc2)c(=O)c1Br :: 7.25

Attention now turns to another entry.
INPUT: Give the measured pIC50 of COc1ccc2ncc(C#N)c(CCN3C4CCC3CC(NCc3ccc5c(n3)NC(=O)CS5)C4)c2c1.Cl (centres unmarked) .
OUTPUT: 6.20

---

Quick reference for Is compound selective in assay? Pf GC-ATP active? among some molecules
- Tested on: P. falciparum late stage (stages IV-V) gametocytes
- Procedure Summary: P. falciparum late stage gametocyte ATP depletion assay (Pf GC-ATP)
- Particulars: 1: YES; 0: NO

CC(C)c1ccc(CN2CCC(CNC(=O)c3cc(-c4cccc(F)c4)cs3)C2)cc1.O=C(O)C(F)(F)F (stereo not shown) :: 1 (1: YES)

INPUT: So what Is compound selective in assay? Pf GC-ATP active? did COc1cccc(NC(=O)[C@H](C(C)C)n2c(=O)[nH]c3ccccc3c2=O)c1 get with P. falciparum late stage (stages IV-V) gametocytes?
OUTPUT: 1 (1: YES)

INPUT: So what Is compound selective in assay? Pf GC-ATP active? did CCOc1ccccc1CCNC(C)Cc1ccc(C(=O)Nc2ccc(CC(C)NCCc3cccc(Cl)c3)cc2)cc1 (stereo not shown) get with P. falciparum late stage (stages IV-V) gametocytes?
OUTPUT: 0 (0: NO)

INPUT: So what Is compound selective in assay? Pf GC-ATP active? did COc1ccc2nc(-c3ccccc3)cc(NCCCNc3cc(-c4ccccc4)nc4ccc(OC)cc34)c2c1.Cl get with P. falciparum late stage (stages IV-V) gametocytes?
OUTPUT: 1 (1: YES)

INPUT: So what Is compound selective in assay? Pf GC-ATP active? did FC(F)(F)c1ccc2[nH]c(-c3ccc(-c4ccc(CNCCN5CCNCC5)cc4)s3)nc2c1.O=C(O)C(F)(F)F get with P. falciparum late stage (stages IV-V) gametocytes?
OUTPUT: 0 (0: NO)

INPUT: So what Is compound selective in assay? Pf GC-ATP active? did COc1c(OC)c(OC)c2ccccc2c1CNCCCCCCNCc1c(OC)c(OC)c(OC)c2ccccc12.Cl get with P. falciparum late stage (stages IV-V) gametocytes?
OUTPUT: 0 (0: NO)

INPUT: So what Is compound selective in assay? Pf GC-ATP active? did COc1cc2nc(NCCCN3CCCCC3)nc(NCc3ccccc3)c2cc1OC get with P. falciparum late stage (stages IV-V) gametocytes?
OUTPUT: 1 (1: YES)

INPUT: So what Is compound selective in assay? Pf GC-ATP active? did COc1ccccc1-c1cccc(-c2cccc(NC(=O)c3ccc([N+](=O)[O-])o3)c2)n1 get with P. falciparum late stage (stages IV-V) gametocytes?
OUTPUT: 0 (0: NO)

INPUT: So what Is compound selective in assay? Pf GC-ATP active? did CCn1c(-c2nonc2N)nc2c(-c3cccc(NC(=O)Nc4cccc(Cl)c4)c3)ncc(OCCCN)c21.O=C(O)C(F)(F)F get with P. falciparum late stage (stages IV-V) gametocytes?
OUTPUT: 1 (1: YES)

INPUT: So what Is compound selective in assay? Pf GC-ATP active? did NCc1ccc(CNCc2cccc(-c3ccc(-c4nc5cc(C(F)(F)F)ccc5[nH]4)cc3)c2)cc1.O=C(O)C(F)(F)F get with P. falciparum late stage (stages IV-V) gametocytes?
OUTPUT: 1 (1: YES)

---

- Test system: P. berghei ookinete development
- Particulars: read-out: Pb ODA IC50; this manuscript
pIC50: −log10 of the molar value.
Returns T if the recorded pIC50 is greater than or equal to 6, and F otherwise.

Consider the following illustrative entries.
CN1CCN(CC(=O)Nc2ccc(-c3ccc(-c4nc5ccccc5[nH]4)cc3)cc2)CC1 :: F
Cc1ccc(C2=NNC3(S2)C(=O)N(C)c2ccccc23)cc1 (stereo not drawn) :: F
CCCCOc1cc2ncc(C(=O)OCC)c(O)c2cc1OCCCC :: F

INPUT: Threshold query (pIC50 >= 6) on Cc1[nH]c2ccccc2c1C(=O)C(C)Sc1n[nH]c(-c2ccccc2Br)n1 (stereo not drawn)
OUTPUT: T

INPUT: Threshold query (pIC50 >= 6) on Nc1nc(N)c2c(Cl)c(N3CCOCC3)ccc2n1
OUTPUT: F

INPUT: Threshold query (pIC50 >= 6) on Nc1nc(N)c2c(ccc3c2ccn3Cc2cccc3ccccc23)n1
OUTPUT: F

---

- Test system: HepG2 cells
- Procedure Summary: HepG2 cytotoxicity assay
- Particulars: HepG2 cytotoxicity unified across screens; >25 set to 25.00
Readout Label: Unified cytotox (µM)
Use µM as the unit, but write only the number.

O=C(O)C(F)(F)F.O=C(c1cccs1)N(Cc1cccc(-c2ccc(CNC3CCCC3)cc2)c1)C1CCN(Cc2ccccc2)CC1 :: 7.10
NC1CCN(Cc2ccc(-c3ccc(-c4nc5cc(F)ccc5[nH]4)cc3)cc2)C1.O=C(O)C(F)(F)F (stereo not drawn) :: 7.25
Cc1ccc(-n2c(C)nc3c(Nc4ccc(-c5ccncc5)cc4)ncnc32)c(C)c1 :: 25.00
COc1cc2ccccc2c(OC)c1CNCCCCCCNCc1c(OC)cc2ccccc2c1OC.CS(=O)(=O)O :: 4.25
CCc1c(CCNCCCC(C)CCNCCc2ccc(OC)c(OC)c2CC)ccc(OC)c1OC.Cl (stereo not drawn) :: 6.00
Cl.N=C(N)NN=Cc1c2ccccc2c(Cl)c2cc(Cl)ccc12 :: 7.50
COc1cc(NC(=O)c2sc(-c3ccc(Cl)cc3)cc2NC(=O)c2ccncc2)ccc1OCCN1CCCC1 :: 3.23
CC(C)CNCc1cccc(-c2ccc(CN(CCCN3CCN(C)CC3)C(=O)/C=C/c3ccccc3)cc2)c1.O=C(O)C(F)(F)F :: 6.65

INPUT: Give the measured Unified cytotox of NCc1ccc(CNCc2cccc(-c3ccc(-c4nc5ccccc5[nH]4)cc3)c2)cc1.O=C(O)C(F)(F)F .
OUTPUT: 21.82

INPUT: Give the measured Unified cytotox of COc1ccc(COc2cc(NCCCN)nc3ccccc23)cc1 .
OUTPUT: 13.98

INPUT: Give the measured Unified cytotox of O=C(Nc1ccc(N2CCNCC2)cc1)c1ccn2ncc(-c3cccc(Cl)c3)c2n1 .
OUTPUT: 22.22

INPUT: Give the measured Unified cytotox of CCNCc1cccc(-c2ccc3ccnc(N)c3c2)c1 .
OUTPUT: 12.50

INPUT: Give the measured Unified cytotox of Fc1ccc2[nH]c(-c3ccc(-c4ccc(CN5CCC(CCN6CCCCC6)CC5)cc4)s3)nc2c1.O=C(O)C(F)(F)F .
OUTPUT: 3.79

INPUT: Give the measured Unified cytotox of CN1CCC(C(=O)N(Cc2ccc(-c3ccc(CNCCc4ccccc4)cn3)cc2)C2CCN(Cc3ccccc3)CC2)CC1.O=C(O)C(F)(F)F .
OUTPUT: 9.27

INPUT: Give the measured Unified cytotox of O=C(Nc1ccc(Oc2ccccc2)cc1)N(CCN1CCCC1)Cc1ccc(-c2ccc(CN3CCNCC3)cc2)cc1.O=C(O)C(F)(F)F .
OUTPUT: 7.08
